- experimental_system: NA from A/H3N2 (Influenza A virus, UniProt O91745)
- Sequence (O91745 whole entry, looked up): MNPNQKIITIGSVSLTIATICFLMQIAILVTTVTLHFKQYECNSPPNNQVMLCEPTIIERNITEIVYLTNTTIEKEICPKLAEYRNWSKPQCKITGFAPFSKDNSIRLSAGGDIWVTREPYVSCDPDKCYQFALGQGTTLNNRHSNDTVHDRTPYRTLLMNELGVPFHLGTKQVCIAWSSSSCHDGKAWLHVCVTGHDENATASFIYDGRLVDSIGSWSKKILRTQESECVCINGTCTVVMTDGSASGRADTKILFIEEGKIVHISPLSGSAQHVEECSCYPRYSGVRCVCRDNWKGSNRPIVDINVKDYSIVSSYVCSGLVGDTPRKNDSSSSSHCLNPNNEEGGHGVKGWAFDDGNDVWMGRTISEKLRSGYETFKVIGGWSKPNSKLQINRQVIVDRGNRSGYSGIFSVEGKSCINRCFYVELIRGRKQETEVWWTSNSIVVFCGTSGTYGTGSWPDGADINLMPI
- assay_notes: biochemical
- Type: biochemical, seasonal A/H3N2
# % Inhibition (1 nM) per entry

{"columns": ["smiles_notation", "quantity_unit", "% Inhibition (1 nM)"],
 "data": [
  ["CCC(CC)O[C@@H]1C=C(C(=O)O)C[C@H](NCc2noc(-c3ccccc3)n2)[C@H]1NC(C)=O", "%", 0.0],
  ["CCC(CC)O[C@@H]1C=C(C(=O)O)C[C@H](NCc2ccc(-c3cccc(Cl)c3)o2)[C@H]1NC(C)=O", "%", 5.5],
  ["CCC(CC)O[C@@H]1C=C(C(=O)O)C[C@H](NCc2ccc(-c3cccc4c3oc3ccccc34)o2)[C@H]1NC(C)=O", "%", 10.9],
  ["CCC(CC)O[C@@H]1C=C(C(=O)O)C[C@H](NCc2noc(-c3ccc(Cl)cc3)n2)[C@H]1NC(C)=O", "%", 4.01],
  ["CCC(CC)O[C@@H]1C=C(C(=O)O)C[C@H](NCc2cc(-c3ccccc3)on2)[C@H]1NC(C)=O", "%", 1.6],
  ["CCC(CC)O[C@@H]1C=C(C(=O)O)C[C@H](NCc2noc(-c3ccccn3)n2)[C@H]1NC(C)=O", "%", 17.1],
  ["CCC(CC)O[C@@H]1C=C(C(=O)O)C[C@H](NCc2noc(-c3ccccc3C)n2)[C@H]1NC(C)=O", "%", 0.5],
  ["CCC(CC)O[C@@H]1C=C(C(=O)O)C[C@H](NCc2noc(-c3ccc(Br)cc3)n2)[C@H]1NC(C)=O", "%", 1.7],
  ["CCC(CC)O[C@@H]1C=C(C(=O)O)C[C@H](NCc2ccc(-c3ccc(OC)c(OC)c3)o2)[C@H]1NC(C)=O", "%", 12.9],
  ["CCC(CC)O[C@@H]1C=C(C(=O)O)C[C@H](NCc2noc(-c3cc(OC)c(OC)c(OC)c3)n2)[C@H]1NC(C)=O", "%", 3.5],
  ["CCC(CC)O[C@@H]1C=C(C(=O)O)C[C@H](NCc2ccc(-c3ccc(F)cc3)o2)[C@H]1NC(C)=O", "%", 3.2],
  ["CCC(CC)O[C@@H]1C=C(C(=O)O)C[C@H](NCc2ccc(-c3ccccc3C)o2)[C@H]1NC(C)=O", "%", 8.4],
  ["CCC(CC)O[C@@H]1C=C(C(=O)O)C[C@H](NCc2ccc(-c3ccsc3)o2)[C@H]1NC(C)=O", "%", 12.5],
  ["CCC(CC)O[C@@H]1C=C(C(=O)O)C[C@H](NCc2noc(-c3c(F)cccc3F)n2)[C@H]1NC(C)=O", "%", 0.0]
]}

====

- experimental_system: NA from A/H3N2 (Influenza A virus, UniProt O91745)
- assay_notes: biochemical
- Type: biochemical, seasonal A/H3N2
Binary label based on % Inhibition (1 nM) with cut-off 8%: below gives Y, not below gives N.

{"columns": ["smiles_notation", "discrete_label"],
 "data": [
  ["CCC(CC)O[C@@H]1C=C(C(=O)O)C[C@H](NCc2noc(-c3cccs3)n2)[C@H]1NC(C)=O", "Y"],
  ["CCC(CC)O[C@@H]1C=C(C(=O)O)C[C@H](NCc2ccc(-c3c(C)noc3C)o2)[C@H]1NC(C)=O", "N"],
  ["CCC(CC)O[C@@H]1C=C(C(=O)O)C[C@H](NCc2ccc(-c3cc(F)cc(F)c3)o2)[C@H]1NC(C)=O", "Y"],
  ["CCC(CC)O[C@@H]1C=C(C(=O)O)C[C@H](NCc2ccc(-c3ccc(OC)cc3)o2)[C@H]1NC(C)=O", "N"],
  ["CCC(CC)O[C@@H]1C=C(C(=O)O)C[C@H](NCc2noc(-c3ccc4ccccc4c3)n2)[C@H]1NC(C)=O", "Y"],
  ["CCC(CC)O[C@@H]1C=C(C(=O)O)C[C@H](NCc2noc(-c3ccc(F)cc3)n2)[C@H]1NC(C)=O", "Y"],
  ["CCC(CC)O[C@@H]1C=C(C(=O)O)C[C@H](NCc2ccc(-c3cc(Cl)ccc3C)o2)[C@H]1NC(C)=O", "Y"],
  ["CCC(CC)O[C@@H]1C=C(C(=O)O)C[C@H](NCc2noc(-c3ccco3)n2)[C@H]1NC(C)=O", "N"],
  ["CCC(CC)O[C@@H]1C=C(C(=O)O)C[C@H](NCc2noc(-c3cccc([N+](=O)[O-])c3)n2)[C@H]1NC(C)=O", "N"]
]}

====

Recorded IC50 by entry
- experimental_system: NA from A/H3N2 (Influenza A virus)
- assay_notes: biochemical
- Format: biochemical, seasonal A/H3N2
- run_parameters: Table 2, Example 32

{"columns": ["smiles_notation", "quantity_unit", "IC50"],
 "data": [
  ["CCC(CC)O[C@@H]1C=C(C(=O)O)C[C@H](NCc2noc(-c3ccco3)n2)[C@H]1NC(C)=O", "nM", 1.92],
  ["CCC(CC)O[C@@H]1C=C(C(=O)O)C[C@H](NCc2ccc(-c3c(C)noc3C)o2)[C@H]1NC(C)=O", "nM", 1.63]
]}

====

- experimental_system: NA from A/H3N2 (Influenza A virus)
- assay_notes: biochemical
- Format: biochemical, seasonal A/H3N2
We begin with a simple list: items and their reported Inhibition rate, 1 μM.

{"columns": ["smiles_notation", "Inhibition rate, 1 μM [%]"],
 "data": [
  ["CCC(CC)O[C@@H]1C=C(C(=O)O)C[C@H](NC(=O)c2cc(C3CC3)nn2-c2ccccc2C)[C@H]1NC(C)=O", 23.28],
  ["CCC(CC)O[C@@H]1C=C(C(=O)O)C[C@H](NC(=O)c2cnn(-c3ccc(C)cc3)c2)[C@H]1NC(C)=O", 8.96],
  ["CCC(CC)O[C@@H]1C=C(C(=O)O)C[C@H](NC(=O)c2cc(-c3ccc(Cl)cc3)nn2CC2CCC2)[C@H]1NC(C)=O", 11.12],
  ["CCC(CC)O[C@@H]1C=C(C(=O)O)C[C@H](NC(=O)c2cnn(-c3ccc(Cl)cc3)c2)[C@H]1NC(C)=O", "−0.26"]
]}

====

- experimental_system: NA from A/H3N2 (Influenza A virus, UniProt O91745)
- assay_notes: biochemical
- Format: biochemical, seasonal A/H3N2
Listed next: entries and their corresponding Inhibition rate, 10 μM.

{"columns": ["compound", "Inhibition rate, 10 μM"],
 "data": [
  ["CCC(CC)O[C@@H]1C=C(C(=O)O)C[C@H](NC(=O)c2cnn(Cc3cccc([N+](=O)[O-])c3)c2)[C@H]1NC(C)=O [OC-007]", "12.26%"],
  ["CCC(CC)O[C@@H]1C=C(C(=O)O)C[C@H](NC(=O)c2cc(C3CC3)nn2-c2ccccc2C)[C@H]1NC(C)=O [OC-029]", "72.80%"],
  ["CCC(CC)O[C@@H]1C=C(C(=O)O)C[C@H](NC(=O)c2cnn(Cc3cccc(OC)c3)c2)[C@H]1NC(C)=O [OC-002]", "23.37%"],
  ["CCC(CC)O[C@@H]1C=C(C(=O)O)C[C@H](NC(=O)c2cc(-c3ccc(F)cc3)n[nH]2)[C@H]1NC(C)=O [OC-012]", "56.45%"]
]}

====

Measured Inhibition rate, 10 μM by item
- experimental_system: NA from A/H3N2 (Influenza A virus, UniProt O91745)
- assay_notes: biochemical
- Format: biochemical, seasonal A/H3N2
reported_endpoint: Inhibition rate, 10 μM

{"columns": ["molecule", "reported_endpoint", "test_value"],
 "data": [
  ["CCC(CC)O[C@@H]1C=C(C(=O)O)C[C@H](NC(=O)c2cc(-c3ccc(OC)cc3)n[nH]2)[C@H]1NC(C)=O [OC-017]", "Inhibition rate, 10 μM", "42.02%"],
  ["CCC(CC)O[C@@H]1C=C(C(=O)O)C[C@H](NC(=O)c2cc(-c3ccc(Cl)cc3)nn2CC2CCCCC2)[C@H]1NC(C)=O [OC-019]", "Inhibition rate, 10 μM", "48.50%"],
  ["CCC(CC)O[C@@H]1C=C(C(=O)O)C[C@H](NC(=O)c2cnn(-c3ccc(C)cc3)c2)[C@H]1NC(C)=O [OC-010]", "Inhibition rate, 10 μM", "52.31%"],
  ["CCC(CC)O[C@@H]1C=C(C(=O)O)C[C@H](NC(=O)c2cc(C3CC3)n(-c3cccc(C)c3)n2)[C@H]1NC(C)=O [OC-023]", "Inhibition rate, 10 μM", "34.75%"],
  ["CCC(CC)O[C@@H]1C=C(C(=O)O)C[C@H](NC(=O)c2cc(-c3ccc(Cl)cc3)nn2CC2CC2)[C@H]1NC(C)=O [OC-015]", "Inhibition rate, 10 μM", "31.50%"],
  ["CCC(CC)O[C@@H]1C=C(C(=O)O)C[C@H](NC(=O)c2cnn(Cc3ccccc3)c2)[C@H]1NC(C)=O [OC-001]", "Inhibition rate, 10 μM", "32.02%"],
  ["CCC(CC)O[C@@H]1C=C(C(=O)O)C[C@H](NC(=O)c2cnn(Cc3ccc(C(F)(F)F)cc3)c2)[C@H]1NC(C)=O [OC-006]", "Inhibition rate, 10 μM", "21.72%"],
  ["CCC(CC)O[C@@H]1C=C(C(=O)O)C[C@H](NC(=O)c2cnn(Cc3ccccc3Cl)c2)[C@H]1NC(C)=O [OC-005]", "Inhibition rate, 10 μM", "18.88%"],
  ["CCC(CC)O[C@@H]1C=C(C(=O)O)C[C@H](NC(=O)c2cc(-c3ccc(Cl)cc3)nn2CC2CCC2)[C@H]1NC(C)=O [OC-018]", "Inhibition rate, 10 μM", "39.81%"],
  ["CCC(CC)O[C@@H]1C=C(C(=O)O)C[C@H](NC(=O)c2cc(C3CC3)n(-c3ccc(C(F)(F)F)cc3)n2)[C@H]1NC(C)=O [OC-020]", "Inhibition rate, 10 μM", "44.47%"],
  ["CCC(CC)O[C@@H]1C=C(C(=O)O)C[C@H](NC(=O)c2cc(C3CC3)n(-c3ccccc3C)n2)[C@H]1NC(C)=O [OC-028]", "Inhibition rate, 10 μM", "60.91%"],
  ["CCC(CC)O[C@@H]1C=C(C(=O)O)C[C@H](NC(=O)c2cc(-c3ccc(C(F)(F)F)cc3)n[nH]2)[C@H]1NC(C)=O [OC-009]", "Inhibition rate, 10 μM", "46.76%"],
  ["CCC(CC)O[C@@H]1C=C(C(=O)O)C[C@H](NC(=O)c2cc(C3CC3)n(-c3ccccc3)n2)[C@H]1NC(C)=O [OC-021]", "Inhibition rate, 10 μM", "30.57%"],
  ["CCC(CC)O[C@@H]1C=C(C(=O)O)C[C@H](NC(=O)c2cc(C3CC3)nn2-c2cccc(C)c2)[C@H]1NC(C)=O [OC-027]", "Inhibition rate, 10 μM", "31.53%"]
]}
